Reference source for all entries: patent US20070020327A1

# targetOrTestSystem: HLA-A*0201 (human)
# methodSummary: inhibition of 125I-labelled standard peptide binding to purified HLA-A*0201, gel filtration
measuredEndpoint: binding affinity ratio (IC50 of standard peptide / IC50 of test peptide)

Before answering, review these 5 worked examples.
> print(dat)
                                     binder    value
1  CAQVHPQKV (modifications not checked) [… (PSA, position 180)]   0.0002
2  AVPLIQSRI (modifications not checked) [… (Kallikrein, position 17)]   0.0001
3  CLKKNSQV (modifications not checked) [CLKKNSQV (Kallikrein, position 66)]   0.0001
4  CALPEKPA (modifications not checked) [CALPEKPA (Kallikrein, position 234)]  -0.0001
5  CIRNKSVILL (modifications not checked) [… (PSA, position 62)]   0.0001

[A] AVEPDRYVIL (modifications not checked) [… (PSM, position 365)]
[B] CARAYSEKV (modifications not checked) [… (Kallikrein, position 184)]
Would you let me know which has the greater binding affinity ratio (IC50 of standard peptide / IC50 of test peptide) value, A or B ? Return value: the label identifying the chosen record. A
(A: 0.0002, B: -0.0001)
